assay_target: AMPA receptor (human GluR1 flip/stargazin expressed in CHO-K1 cells) (Homo sapiens)
Construct: expressed in transfected cells; host or cells: CHO-K1
Sequence (P42261 19-906 isoform P42261-2 limits assumed): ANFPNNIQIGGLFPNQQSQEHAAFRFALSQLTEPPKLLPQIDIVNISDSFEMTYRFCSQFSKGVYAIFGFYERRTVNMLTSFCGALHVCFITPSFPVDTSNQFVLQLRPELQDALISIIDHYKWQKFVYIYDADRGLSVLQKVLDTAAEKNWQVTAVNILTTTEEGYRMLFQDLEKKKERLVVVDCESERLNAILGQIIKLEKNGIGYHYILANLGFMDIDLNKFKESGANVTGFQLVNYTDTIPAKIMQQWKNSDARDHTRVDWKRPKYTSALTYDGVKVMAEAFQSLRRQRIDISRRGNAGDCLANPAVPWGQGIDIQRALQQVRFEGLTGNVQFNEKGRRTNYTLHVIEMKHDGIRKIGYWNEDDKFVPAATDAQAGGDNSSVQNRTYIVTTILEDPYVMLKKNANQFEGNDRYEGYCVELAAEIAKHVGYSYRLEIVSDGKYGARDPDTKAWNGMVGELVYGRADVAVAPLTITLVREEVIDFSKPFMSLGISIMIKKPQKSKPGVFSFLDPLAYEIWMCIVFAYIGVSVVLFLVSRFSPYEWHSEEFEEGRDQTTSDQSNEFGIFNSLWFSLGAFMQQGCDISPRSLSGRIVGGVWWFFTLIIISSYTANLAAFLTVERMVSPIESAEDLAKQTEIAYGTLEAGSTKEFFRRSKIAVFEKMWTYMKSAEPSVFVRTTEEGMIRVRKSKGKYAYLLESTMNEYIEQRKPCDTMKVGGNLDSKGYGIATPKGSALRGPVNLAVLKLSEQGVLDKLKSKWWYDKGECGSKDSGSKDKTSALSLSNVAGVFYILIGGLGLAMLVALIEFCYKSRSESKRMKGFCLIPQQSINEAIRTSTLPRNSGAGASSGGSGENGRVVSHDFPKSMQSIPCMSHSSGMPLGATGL
Sequence (Q9Y698 whole entry partner): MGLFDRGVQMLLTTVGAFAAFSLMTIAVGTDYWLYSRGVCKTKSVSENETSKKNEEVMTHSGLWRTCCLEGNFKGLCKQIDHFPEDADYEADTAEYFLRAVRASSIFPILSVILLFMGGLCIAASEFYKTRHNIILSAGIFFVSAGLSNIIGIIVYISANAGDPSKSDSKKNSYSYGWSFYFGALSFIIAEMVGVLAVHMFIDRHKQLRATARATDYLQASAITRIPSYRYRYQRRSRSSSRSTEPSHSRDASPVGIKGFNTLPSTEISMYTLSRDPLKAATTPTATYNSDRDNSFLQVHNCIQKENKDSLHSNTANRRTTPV
experiment: AMPA receptor function enhancing activity using calcium influx as index
Assay type: cell-based
run_conditions: test compound 30 μM with 3 mM glutamic acid, change in fluorescence level in 3 min, 100% = 3 mM glutamic acid + 300 μM cyclothiazide, 0% = 3 mM glutamic acid only
property_measured: activity (%)
Field format: number, assumed %, no unit text.

Would you please look over these solved cases?
[[record]]
molecule = "CC(F)(F)c1ccc(C2CCCN3CCS(=O)(=O)N=C23)cc1 (centres unmarked) [Example 231]"
assay_target = "AMPA receptor (human GluR1 flip/stargazin expressed in CHO-K1 cells) (Homo sapiens)"
property_measured = "activity (%)"
recorded_value = 78

[[record]]
molecule = "O=S1(=O)CCN2CCC[C@@H](c3ccc(Oc4cc(C(F)(F)F)ccc4Cl)cc3)C2=N1"
assay_target = "AMPA receptor (human GluR1 flip/stargazin expressed in CHO-K1 cells) (Homo sapiens)"
property_measured = "activity (%)"
recorded_value = 78


Under AMPA receptor (human GluR1 flip/stargazin expressed in CHO-K1 cells) (Homo sapiens): report activity (%) of O=S1(=O)CCN2C=CC=C(c3ccc(OCC(F)(F)F)cc3)C2=N1 .
80

Find the measured activity (%) of O=S1(=O)CCN2C=CC=C(c3ccc(OC4CCCCC4)cc3)C2=N1 with AMPA receptor (human GluR1 flip/stargazin expressed in CHO-K1 cells) (Homo sapiens) as test system.
80

Param request: activity (%) | system AMPA receptor (human GluR1 flip/stargazin expressed in CHO-K1 cells) (Homo sapiens) | item O=S1(=O)CCN2CCC[C@@H](c3ccc(Oc4cc(F)c(F)c(F)c4)cc3)C2=N1
68

Enter recorded activity (%) with AMPA receptor (human GluR1 flip/stargazin expressed in CHO-K1 cells) (Homo sapiens) for CC(F)(F)c1ccc(C2CCCN3CCS(=O)(=O)N=C23)cc1 (centres unmarked) [Example 174] here.
79

# return activity (%) of O=S1(=O)CCN2C=CN=C(c3ccc(Oc4ccccc4)cc3)C2=N1 (system: AMPA receptor (human GluR1 flip/stargazin expressed in CHO-K1 cells) (Homo sapiens))
82

Output reported activity (%) of the molecule CC1CC(c2ccc(Oc3cccc(C(C)(F)F)c3)cc2)C2=NS(=O)(=O)CCN2C1 (racemic) [Example 173] on AMPA receptor (human GluR1 flip/stargazin expressed in CHO-K1 cells) (Homo sapiens).
68
